Read-out: Keratin 19 (KRT19), KRT19 (gene 3880)
method notes: LTEA_HepaRG_KRT19: Life Technologies and Expression Analysis (LTEA) Assay for Keratin 19 (KRT19) using HepaRG (AID 2283512)
measurement conditions: mRNA level, 48 h; actives raise or lower the signal
The source made the active and inactive calls. The calls were made as follows: active = hit-call score of the fitted dose curve at least 0.9, where 1 is the maximum; inactive = score below 0.9.

compound	AC50
CCCCCCCCO	inactive
COc1ccc(-n2nc(C(F)F)cc2-c2ccc(S(C)=O)cc2)cc1 (centres undefined)	inactive
CC(=O)OCCC(C)C	inactive
CCn1nc(Cc2ccccc2)cc1C1CCN(C[C@H]2C[C@H](N(C)[C@@H](C(=O)O)C(C)C)C[C@@H]2c2cccc(F)c2)CC1	34.9 µM (active)
CCOCCOCCOCCO	inactive
CNCc1ccc(NC(=O)c2c[nH]c3c2C(=O)CCC3)cc1	inactive
Cn1cnc([N+](=O)[O-])c1Sc1ncnc2nc[nH]c12	5.94 µM (active)
CC1=CC(=O)CC(C)(C)C1	inactive
O=C1CCCCCN1	inactive
